B1: LINE1-mini (parent)
chain: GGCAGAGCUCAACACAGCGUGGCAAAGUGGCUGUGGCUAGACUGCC

- Variants of: B1
- test.description: self-cleavage, relative activity (ratio to wild type); higher = more cleavage; in vitro, sequencing; the parent is a self-cleaving ribozyme
TRUE means recorded self-cleavage is 0.2 or above; FALSE means it is below 0.2.

{"mutant.code": "G19A G30A", "label.value": "TRUE"}
{"mutant.code": "G27U G44C", "label.value": "TRUE"}
{"mutant.code": "G27C G40U", "label.value": "FALSE"}
{"mutant.code": "G33A U34G", "label.value": "FALSE"}
{"mutant.code": "G19A A25C", "label.value": "TRUE"}
{"mutant.code": "G22A U38A", "label.value": "TRUE"}
{"mutant.code": "C13U U28G", "label.value": "FALSE"}
{"mutant.code": "G1C G17C", "label.value": "FALSE"}
{"mutant.code": "A6U U38G", "label.value": "FALSE"}
{"mutant.code": "A4C A39G", "label.value": "TRUE"}
{"mutant.code": "C31A A39U", "label.value": "FALSE"}
{"mutant.code": "G1C G30U", "label.value": "FALSE"}
{"mutant.code": "G30C U38G", "label.value": "FALSE"}
{"mutant.code": "C3A C37G", "label.value": "TRUE"}
{"mutant.code": "G30U U34A", "label.value": "FALSE"}
{"mutant.code": "G22C U32A", "label.value": "FALSE"}
{"mutant.code": "G7A A12G", "label.value": "FALSE"}
{"mutant.code": "C8G G27A", "label.value": "FALSE"}
{"mutant.code": "C10U A39U", "label.value": "TRUE"}
{"mutant.code": "U28A G33U", "label.value": "FALSE"}
{"mutant.code": "G19U C45A", "label.value": "TRUE"}
{"mutant.code": "G2C G33U", "label.value": "FALSE"}
{"mutant.code": "C3G A12G", "label.value": "FALSE"}
{"mutant.code": "C13G A24C", "label.value": "FALSE"}
{"mutant.code": "C13A C42U", "label.value": "FALSE"}
{"mutant.code": "C13A A25C", "label.value": "FALSE"}
{"mutant.code": "C15U C23U", "label.value": "TRUE"}
{"mutant.code": "G19C C45G", "label.value": "FALSE"}
{"mutant.code": "C13U C23G", "label.value": "FALSE"}
{"mutant.code": "U28G C45A", "label.value": "TRUE"}
{"mutant.code": "G30A G33A", "label.value": "FALSE"}
{"mutant.code": "A4C G19U", "label.value": "FALSE"}
{"mutant.code": "G5U U43C", "label.value": "FALSE"}
{"mutant.code": "G27C U28C", "label.value": "TRUE"}
{"mutant.code": "A14U U28C", "label.value": "TRUE"}
{"mutant.code": "A14C G35A", "label.value": "FALSE"}
{"mutant.code": "G35A U43A", "label.value": "FALSE"}
{"mutant.code": "G2A A11C", "label.value": "FALSE"}
{"mutant.code": "G22U G35U", "label.value": "TRUE"}
{"mutant.code": "C31A G40C", "label.value": "FALSE"}
{"mutant.code": "C10U U28G", "label.value": "TRUE"}
{"mutant.code": "A12G A39U", "label.value": "FALSE"}
{"mutant.code": "A24U C46A", "label.value": "TRUE"}
{"mutant.code": "G17U U20A", "label.value": "FALSE"}
{"mutant.code": "A6U U32G", "label.value": "FALSE"}
{"mutant.code": "A16U G27C", "label.value": "FALSE"}
